src = ChEMBL document CHEMBL1201862

# System: DMS-273
# ASSAY_PROTOCOL: NCI tumour cell line growth inhibition, 48 h
Active and inactive are the calls of the source. Cut-off read from the data, not from the text of the source: active = GI50 up to about 1.1 µM and inactive = higher.
Outcome codes: active, inactive

| COMPOUND | ASSIGNED_CLASS |
| --- | --- |
| Nc1nc2c3nc(Nc4ccccc4)sc3nc(=S)n2c2sc(Nc3ccccc3)nc12 | inactive |
| CCCCSC(=CC(=O)c1cccc(C(=O)C=C(SCCCC)SCCCC)n1)SCCCC | inactive |
| CCCCCCCCCCCCCCCC(=O)OCC1OC(N2C(=O)/C(=N\NC(N)=S)c3ccc([N+](=O)[O-])cc32)C(OC(C)=O)C1OC(C)=O (centres undefined) | inactive |
| COc1cccc2c1C(=O)c1c(O)c3c(c(O)c1C2=O)C[C@@](O)(C(C)=O)C[C@@H]3OC1OC(C)C(O)C(N)C1Br (some centres undefined) | active |
| O=C(CCCCCCCCCCc1ccccc1)C1=C(O)CCCC1=O | inactive |
| COc1ccc(/C(Cl)=C(\C=O)c2ccc(Cl)c(Cl)c2)cc1OC | inactive |
| Cc1c(C(=O)/C=C/C=C/c2ccccc2)[n+]([O-])c2ccccc2[n+]1[O-] | inactive |
| Cc1ccc(-c2cc(-c3ccco3)nc(N)n2)o1 | inactive |
| C[C@@]1(CO)[C@H](O)CC[C@@]2(C)[C@H]1CC[C@H]1C[C@@H]3C[C@@]12CC[C@@]3(O)COC(=O)CN | active |

====

# Tested on: SNB-75
# ASSAY_PROTOCOL: NCI tumour cell line growth inhibition, 48 h
Active and inactive are the calls of the source. Cut-off read from the data, not from the text of the source: active = GI50 up to about 1.1 µM and inactive = higher.
Outcome codes: TRUE for active, FALSE for inactive

| MOLECULE | ASSIGNED_CLASS |
| --- | --- |
| COc1ccc(-c2nc3ncccn3c2-c2ccc(SC)cc2)cc1 | FALSE |
| O=[N+]([O-])C=C1c2ccccc2-c2ccccc21 | FALSE |
| CN(C)CCNc1ccc(CO)c2oc3ccc(O)cc3c(=O)c12 | FALSE |
| Cc1ccc(C(=O)Nc2ccc(CP(=O)(O)O)cc2)cc1NC(=O)c1cccc(N)c1 | FALSE |
| Nc1nc2c(ncn2Cc2ccc(CO)cc2)c(=O)[nH]1 | FALSE |
| Cc1ccc(-c2cc(-c3ccco3)nc(N)n2)o1 | FALSE |
| CCOC(=O)c1c(C)n(-c2ccc(C)cc2)c2c1cc(O)c1[nH]c3c(c12)CCCC3 | TRUE |

====

# Tested on: HT-29
# ASSAY_PROTOCOL: NCI tumour cell line growth inhibition, 48 h
Active and inactive are the calls of the source. No stated cut-off is given here; in the data, active = GI50 up to about 1.1 µM and inactive = higher.

| COMPOUND | MEASURED_ON | GI50 |
| --- | --- | --- |
| Cc1cn(CC2=NCCN2)c(=O)[nH]c1=O | HT-29 | > 100 µM (inactive) |
| Oc1cccc2ccc(Br)nc12 | HT-29 | > 100 µM (inactive) |
| Cc1cc(=O)cc2sc3c(C)cccc3nc1-2 | HT-29 | 35.1 µM (inactive) |
| CCn1c2ccccc2c2cc(NC(=O)c3c(C)[nH]c(=O)[nH]c3=S)ccc21 | HT-29 | 48.2 µM (inactive) |
| Cc1ccc(-c2cc(-c3ccco3)nc(N)n2)o1 | HT-29 | > 100 µM (inactive) |
| O=C1Nc2ccc(S(=O)(=O)O)cc2/C1=N/Nc1ccccc1[N+](=O)[O-] | HT-29 | > 100 µM (inactive) |
| CCOC(=O)c1[nH]cc(C)c1-c1c[nH]c2ccccc12 | HT-29 | 21.6 µM (inactive) |
| CC(C)(C)OC(=O)NC(Cc1ccc(OCc2ccccc2)cn1)C(=O)N1CCSCC1 (stereo unspecified) | HT-29 | 32.7 µM (inactive) |
| COc1cc(S(=O)(=O)Nc2ccc(-c3csc(N4C(=O)CSC4c4cccc(Oc5ccccc5)c4)n3)cc2)ccc1Cl (stereo unspecified) | HT-29 | 47 µM (inactive) |
| Cn1c(=O)cc2[nH]c3ccccc3n2c1=O | HT-29 | 49.3 µM (inactive) |
| CCCC/C=C1\CCC(CN2CCCCC2)C1=O (stereo unspecified) | HT-29 | 10.9 µM (inactive) |
